Data provenance: paper PMC5540273

System: CDKL5
Conditions: concentration: 1 μM, replicates: in singlicate; n = 1;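 further: KINOMEscan kinase panel screen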
Each entry below lists one item and its recorded %Inh value.

compound: O=C(Nc1n[nH]c2cc(-c3cccc(F)c3F)ccc12)C1CC1 [SB-733894]
%Inh, %: 0

compound: Cn1ccc2ncnc(Oc3ccc(NC(=O)Nc4ccccc4)cc3)c21
%Inh, %: 17

compound: CN1C(=O)C(Nc2ccc(Cl)c(C(=O)O)c2)=C(c2ccc(Cl)cc2)C1=O [SB-404290]
%Inh, %: 16

compound: Cc1ccc(-c2cc(-c3c[nH]nc3-c3ccccn3)ccn2)cc1 [GW684088]
%Inh, %: 0

compound: NC(=O)c1nnc2ccccc2c1N
%Inh, %: 9

compound: Fc1cccc(COc2nnc(-c3ccc4c(c3)CCO4)o2)c1
%Inh, %: 0

compound: Cc1cccc(-c2nc(Nc3cccc(C(N)=O)c3)c3ccccc3n2)n1 [GW876019]
%Inh, %: 1

compound: CCn1c(-c2cccnc2O)nc2cnccc21 [SB-736715]
%Inh, %: 0

compound: COc1ccc(C2=C(Nc3cccc(C(=O)O)c3)C(=O)NC2=O)cc1 [SB-390765]
%Inh, %: 13

compound: CSc1nn2c(=O)cc(N3CCOCC3)nc2n1Cc1cccc(C(F)(F)F)c1C [GSK2363608]
%Inh, %: 0

compound: Cc1ccccc1-n1cnc2c(N)ncnc21 [SKF-97510]
%Inh, %: 0

compound: Cn1ccc2ncnc(Oc3cccc(C(=O)Nc4ccccc4)c3)c21
%Inh, %: 0

compound: O=C(Nc1n[nH]c2nc(-c3nccs3)c(Br)cc12)C1CCCC1 [SB-742609]
%Inh, %: 0

compound: Cc1nnc(-c2ccc3occ(-c4ccc(S(C)=O)cc4)c3c2)[nH]1 (stereo not drawn)
%Inh, %: 12

compound: O=C(Nc1ccccc1)Nc1cccc(Oc2ccc3nccn3n2)c1
%Inh, %: 2

compound: COc1ccc(Nc2nccc(-c3cccc(NC(=O)c4cc5cc(F)ccc5[nH]4)c3)n2)cc1 [GSK1229782]
%Inh, %: 0

compound: Cc1cccc(-c2cc(Nc3ccncc3)c3ccccc3n2)n1 [GSK223675]
%Inh, %: 1

compound: Fc1cc(Cl)ccc1Nc1ccnc2cc(-c3ccc(CN4CCCCC4)o3)ccc12 [GW560116]
%Inh, %: 0

compound: Cl.Oc1ccc(-c2nc(-c3ccccc3)[nH]c2-c2ccncc2)cc1 [SB-428218]
%Inh, %: 0

compound: Cl.c1ccc(-c2n[nH]cc2-c2ccnc(-c3ccc(CN4CCOCC4)cc3)c2)nc1 [GW776245]
%Inh, %: 0

compound: Cc1cc(-c2ccc3c(c2)CC[C@@H](N[C@@H](C)c2ccccc2)C3)cnc1N.Cl [GW412617]
%Inh, %: 0

compound: Fc1cc(Cl)ccc1Nc1ccnc2cc(I)ccc12 [GW551191]
%Inh, %: 3

compound: COc1cc2nccc(Nc3ccc(NC(=O)c4ccc(C)cc4)c(O)c3)c2cc1OC.Cl [GW440132]
%Inh, %: 0

compound: Cc1ccc(NC(=O)Nc2cc(C(C)(C)C)nn2-c2ccccc2)cc1 [GSK1014915]
%Inh, %: 14

---

Test system: AXL
Settings: concentration: 1 μM, replicates: in singlicate; n = 1
observable: %Inh (%)

compound: Cc1ccc(C(=O)Nc2ccc(Nc3ccnc4cc(-c5ccccn5)ccc34)cc2O)cc1.Cl
observable: %Inh
u: %
observed measurement: 0
--
compound: COc1ccc2nc(-c3cccc(C)n3)nc(Nc3ccncc3)c2c1
observable: %Inh
u: %
observed measurement: 2
--
compound: Fc1cc(Cl)ccc1Nc1ccnc2cc(I)ccc12
observable: %Inh
u: %
observed measurement: 0
--
compound: Cc1cccc(-c2nc(Nc3cccc(C(N)=O)c3)c3ccccc3n2)n1
observable: %Inh
u: %
observed measurement: 0
--
compound: O=C(Nc1n[nH]c2cc(-c3cccc(F)c3F)ccc12)C1CC1
observable: %Inh
u: %
observed measurement: 0
--
compound: Cc1cc(NCC(c2ccccc2)c2ccccc2)nc(NCc2ccc(C(F)(F)F)cc2)n1
observable: %Inh
u: %
observed measurement: 0
--
compound: COc1ccc(C2=C(Nc3cccc(C(=O)O)c3)C(=O)NC2=O)cc1
observable: %Inh
u: %
observed measurement: 19
--
compound: O=C(Nc1n[nH]c2nc(-c3nccs3)c(Br)cc12)C1CCCC1
observable: %Inh
u: %
observed measurement: 0
--
compound: Cc1c(Cn2ccn3c(=O)cc(N4CCOCC4)nc23)cccc1C(F)(F)F
observable: %Inh
u: %
observed measurement: 7
--
compound: Cn1ccc2ncnc(Oc3cccc(C(=O)Nc4ccccc4)c3)c21
observable: %Inh
u: %
observed measurement: 3
--
compound: Cn1cncc1-c1ccc2ncnc(Nc3ccc(OCc4ccccc4)cc3)c2c1
observable: %Inh
u: %
observed measurement: 10
--
compound: Cl.c1ccc(-c2n[nH]cc2-c2ccnc(-c3ccc(CN4CCOCC4)cc3)c2)nc1
observable: %Inh
u: %
observed measurement: 0
--
compound: O=C1NC(=O)C(N2CCc3ccccc32)=C1c1ccccc1Cl
observable: %Inh
u: %
observed measurement: 0
--
compound: COc1ccccc1CNC(=O)c1cc(C(=O)c2ccccc2C)c[nH]1
observable: %Inh
u: %
observed measurement: 8
--
compound: COc1cc2ncn(-c3cc(OCC4CCCO4)c(C(N)=O)s3)c2cc1OC (stereo not drawn)
observable: %Inh
u: %
observed measurement: 0
--
compound: COc1cccc(NC(=O)NC2CCN(c3ccnc(Nc4ccc(F)cc4)n3)C2)c1 (stereo not drawn)
observable: %Inh
u: %
observed measurement: 0
--
compound: Cc1ccc(NC(=O)Nc2cc(C(C)(C)C)nn2-c2ccccc2)cc1
observable: %Inh
u: %
observed measurement: 2
--
compound: COC(=O)c1c(-c2ccccc2)c2cc(OC)ccc2c(=O)n1Cc1ccccc1
observable: %Inh
u: %
observed measurement: 0
--
compound: O=c1cc(N2CCOCC2)nc2n(Cc3cccc(Cl)c3Cl)ccn12
observable: %Inh
u: %
observed measurement: 100
--
compound: Cc1ccc(NC(=O)Nc2cccc(Cl)c2)cc1-c1ccc(C(=O)Nc2ccncc2)cc1
observable: %Inh
u: %
observed measurement: 0
--
compound: Cc1cc(N2Cc3ccccc3C2)nc(Nc2ccc(S(=O)(=O)N3CCOCC3)cc2)n1.Cl
observable: %Inh
u: %
observed measurement: 0
--
compound: Cl.O=C(Nc1cccc(-c2nn3ncccc3c2-c2ccnc(Nc3cccnc3)n2)c1)c1c(F)cccc1F
observable: %Inh
u: %
observed measurement: 11
--
compound: Clc1cc(Cl)cc(Nc2ccnc(Nc3cc(Cl)cc(Cl)c3)n2)c1
observable: %Inh
u: %
observed measurement: 2
--
compound: Cl.Oc1ccc(-c2nc(-c3ccccc3)[nH]c2-c2ccncc2)cc1
observable: %Inh
u: %
observed measurement: 0
--
compound: Cc1cccc(-c2cc(Nc3ccncc3)c3ccccc3n2)n1
observable: %Inh
u: %
observed measurement: 0
--
compound: NC(=O)c1nnc2ccccc2c1N
observable: %Inh
u: %
observed measurement: 19
--
compound: Cc1ccc(-c2cc(-c3c[nH]nc3-c3ccccn3)ccn2)cc1
observable: %Inh
u: %
observed measurement: 5

---

Test system: PRKCE
Settings: concentration: 1 μM, replicates: in singlicate; n = 1
Threshold check on %Inh: at or above 7% gives label 1, strictly below gives label 0.

compound: Cl.O=C(Nc1cccc(-c2nn3ncccc3c2-c2ccnc(Nc3cccnc3)n2)c1)c1c(F)cccc1F
target: PRKCE
category label: label 0
//
compound: Cn1cncc1-c1ccc2ncnc(Nc3ccc(OCc4ccccc4)cc3)c2c1
target: PRKCE
category label: label 1
//
compound: O=C1NC(=O)C(N2CCc3ccccc32)=C1c1ccccc1Cl
target: PRKCE
category label: label 0
//
compound: Cn1ccc2ncnc(Oc3ccc(NC(=O)Nc4ccccc4)cc3)c21
target: PRKCE
category label: label 0
//
compound: O=C(Nc1n[nH]c2nc(-c3nccs3)c(Br)cc12)C1CCCC1
target: PRKCE
category label: label 0
//
compound: COc1ccccc1CNC(=O)c1cc(C(=O)c2ccccc2C)c[nH]1
target: PRKCE
category label: label 0
//
compound: Fc1cccc(COc2nnc(-c3ccc4c(c3)CCO4)o2)c1
target: PRKCE
category label: label 0
//
compound: Cc1cccc(-c2nc(C)cc(Nc3ccncc3)n2)n1
target: PRKCE
category label: label 0
//
compound: CC(C)(C)c1ccc(C(=O)Nc2cn3cc(Cl)ccc3n2)cc1
target: PRKCE
category label: label 1
//
compound: Clc1cc(Cl)cc(Nc2ccnc(Nc3cc(Cl)cc(Cl)c3)n2)c1
target: PRKCE
category label: label 1
//
compound: COc1ccc(Nc2nccc(-c3cccc(NC(=O)c4cc5cc(F)ccc5[nH]4)c3)n2)cc1
target: PRKCE
category label: label 1
//
compound: O=c1cc(N2CCOCC2)nc2n(Cc3cccc(Cl)c3Cl)ccn12
target: PRKCE
category label: label 0
//
compound: CS(=O)(=O)c1ccc(-c2c(-c3ncn[nH]3)sc(N3CCOCC3)c2C#N)cc1
target: PRKCE
category label: label 1
//
compound: COC(=O)c1c(-c2ccccc2)c2cc(C(=O)O)ccc2c(=O)n1Cc1ccccc1
target: PRKCE
category label: label 0
//
compound: Fc1cc(Cl)ccc1Nc1ccnc2cc(-c3ccc(CN4CCCCC4)o3)ccc12
target: PRKCE
category label: label 0
//
compound: COc1cccc(-c2cc(-c3c[nH]nc3-c3ccccn3)ccn2)c1
target: PRKCE
category label: label 1
//
compound: Cl.Oc1ccc(-c2nc(-c3ccccc3)[nH]c2-c2ccncc2)cc1
target: PRKCE
category label: label 1
//
compound: CC(C)(C)c1ccc(C(=O)Nc2cn3cc(-c4cccnc4)ccc3n2)cc1
target: PRKCE
category label: label 0
//
compound: Cc1cc(N2Cc3ccccc3C2)nc(Nc2ccc(S(=O)(=O)N3CCOCC3)cc2)n1.Cl
target: PRKCE
category label: label 0
//
compound: Cc1ccc(C(=O)Nc2ccc(Nc3ccnc4cc(-c5ccccn5)ccc34)cc2O)cc1.Cl
target: PRKCE
category label: label 0
//
compound: Cc1ccc(-c2cc(-c3c[nH]nc3-c3ccccn3)ccn2)cc1
target: PRKCE
category label: label 1
//
compound: CCCc1ccc(S(=O)(=O)NC2CCN(c3ccnc(Nc4ccc(F)cc4)n3)C2)cc1 (centres unmarked)
target: PRKCE
category label: label 1
//
compound: COc1cc2ncnc(Nc3ccc4nc(-c5ccccc5)[nH]c4c3)c2cc1OC.Cl
target: PRKCE
category label: label 1
//
compound: Cc1cccc(-c2cc(Nc3ccncc3)c3ccccc3n2)n1
target: PRKCE
category label: label 0
//
compound: C[C@@H]1CCCCN1c1cc(-c2ccc3c(N)n[nH]c3c2)nc(N)n1
target: PRKCE
category label: label 0
//
compound: NC(=O)c1nnc2ccccc2c1N
target: PRKCE
category label: label 1
//
compound: Cc1ccc(NC(=O)Nc2cccc(Cl)c2)cc1-c1ccc(C(=O)Nc2ccncc2)cc1
target: PRKCE
category label: label 1
